Target: human mGlu5a receptor (Homo sapiens (Human), UniProt P41594)
Sequence (P41594 other isoform, or with tags, fused parts or gaps): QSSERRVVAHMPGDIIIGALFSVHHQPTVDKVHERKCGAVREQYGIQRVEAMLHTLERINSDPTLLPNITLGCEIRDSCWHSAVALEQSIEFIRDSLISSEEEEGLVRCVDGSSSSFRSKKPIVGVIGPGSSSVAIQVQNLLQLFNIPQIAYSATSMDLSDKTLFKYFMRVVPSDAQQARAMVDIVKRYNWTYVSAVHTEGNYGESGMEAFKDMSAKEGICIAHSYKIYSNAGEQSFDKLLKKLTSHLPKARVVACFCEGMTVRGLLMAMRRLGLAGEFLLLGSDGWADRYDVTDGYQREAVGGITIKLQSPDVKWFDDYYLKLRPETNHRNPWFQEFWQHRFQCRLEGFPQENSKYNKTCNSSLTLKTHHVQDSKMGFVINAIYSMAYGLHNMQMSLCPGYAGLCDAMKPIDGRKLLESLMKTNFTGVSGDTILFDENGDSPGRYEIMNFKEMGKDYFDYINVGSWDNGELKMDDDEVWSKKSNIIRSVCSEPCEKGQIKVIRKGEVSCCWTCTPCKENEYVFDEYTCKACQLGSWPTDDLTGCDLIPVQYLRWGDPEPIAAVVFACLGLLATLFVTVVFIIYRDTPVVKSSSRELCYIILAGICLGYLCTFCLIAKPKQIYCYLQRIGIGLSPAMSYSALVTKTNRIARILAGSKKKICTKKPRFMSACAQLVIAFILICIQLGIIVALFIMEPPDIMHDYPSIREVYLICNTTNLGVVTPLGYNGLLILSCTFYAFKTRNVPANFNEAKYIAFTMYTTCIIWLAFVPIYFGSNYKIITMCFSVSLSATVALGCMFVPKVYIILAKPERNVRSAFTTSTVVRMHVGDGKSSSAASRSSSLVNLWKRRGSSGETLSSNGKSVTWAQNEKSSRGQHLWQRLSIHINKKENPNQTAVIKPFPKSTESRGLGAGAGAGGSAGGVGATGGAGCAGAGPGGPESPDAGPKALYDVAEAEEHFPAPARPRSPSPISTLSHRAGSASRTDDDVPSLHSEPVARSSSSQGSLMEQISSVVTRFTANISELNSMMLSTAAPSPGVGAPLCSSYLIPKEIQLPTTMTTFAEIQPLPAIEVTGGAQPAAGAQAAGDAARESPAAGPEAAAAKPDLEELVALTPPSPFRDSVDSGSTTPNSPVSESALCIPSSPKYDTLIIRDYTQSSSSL
Assay: Intracellular Ca2+ mobilization assay (mGlu5 PAM)
Assay type: cell-based
Conditions: HEK-293 cells stably transfected with human mGlu5a; L-glutamate added at EC20 (typically around 80 μM)
Description: A monoclonal HEK-293 cell line stably transfected with a cDNA encoding for the human mGlu5a receptor was generated; for the work with mGlu5 Positive Allosteric Modulators (PAMs), a cell line with low receptor expression levels and low constitutive receptor activity was selected to allow the differentiation of agonistic versus PAM activity. […]
Consider the following compounds; for each one, report its EC50.

COC1(c2ccc(C#Cc3ccccc3)cn2)CC(C)(C)N(C)C1=O (racemic): 96 nM

Hi! Can you tell me EC50 for each of these compounds?
1. CN1C(=O)[C@@H](c2ncc(C#Cc3ccccc3)cn2)[C@@H]2CCC[C@@H]21 (racemic)
2. CN1C(=O)[C@@H](c2ccc(C#Cc3cccc(F)c3)cn2)[C@@H]2CCCC[C@@H]21 [Example 40]
3. CN1CCCC[C@H](c2ccc(C#Cc3ccccc3)cn2)C1=O (single isomer, unassigned)
4. CN1C(=O)[C@H](c2ccc(C#Cc3ccccc3)cn2)[C@@H]2CCCC[C@@H]21 (racemic)

Marked response:
["52 nM", "89 nM", "265 nM", "101 nM"]

Batch lookup, EC50 per entry.
1. CN1C(=O)C(c2ncc(C#Cc3cccc(F)c3)cc2F)CC1(C)C (racemic)
2. CN1C(=O)C(c2ccc(C#Cc3cccc(F)c3)cn2)CCC1(C)C (racemic)

Marked response:
188 nM
98 nM

Parameter requested: EC50. Apply to each item below.
1. CN1C(=O)[C@H](c2ccc(C#Cc3cccc(F)c3)cn2)[C@H]2CCC[C@H]21 (single isomer, unassigned)
2. CN1C(=O)[C@@H](c2ccc(C#Cc3cccc(F)c3)cn2)[C@@H]2CCCC[C@@H]21 (racemic) [Example 38]
3. CN1C(=O)[C@@H](c2ccc(C#Cc3cccc(F)c3)cn2)[C@@H]2CCC[C@@H]21 (racemic) [Example 30]
4. CN1C(=O)[C@@H](c2ccc(C#Cc3cccc(F)c3)cn2)[C@@H]2CCC[C@@H]21 (single isomer, unassigned) [Example 31]
5. CN1C(=O)[C@@H](c2ccc(C#Cc3ccccc3)cn2)[C@@H]2CCC[C@@H]21 (single isomer, unassigned) [Example 28]
6. CN1C(=O)[C@@H](c2ccc(C#Cc3ccc(F)cc3)cn2)[C@@H]2CCC[C@@H]21 (racemic)

Marked response:
48 nM
69 nM
33 nM
25 nM
24 nM
78 nM

Each compound below has a recorded value; state its EC50.
1. CN1C(=O)C(c2ccc(C#Cc3cccc(F)c3)nn2)CC1(C)C (racemic)
2. CN1CCCCC(c2ccc(C#Cc3cccc(F)c3)cn2)C1=O (racemic)

Marked response:
["34 nM", "39 nM"]
